Source: PubChem BioAssay (NCI)

Assay: NCI Yeast Anticancer Drug Screen. Data for the mlh1 rad18 strain (AID 175)
Settings: S. cerevisiae mlh1 rad18 strain growth inhibition; at 50.0 µM; stronger effect = higher value
Compounds without any hit were thinned out: in the full panel of roughly 79,000, 15% have a hit.
Assay endpoint: growth inhibition (%)
Reply numerically in %, unit not repeated.

CC(=O)CC(C)C(=O)O (stereo unspecified) (tested in a mixture with another compound)    -20.6

Consider the molecule CCOC(=O)C(C)(Br)CC (stereo unspecified) and give its measured growth inhibition.
-7.8

Consider the molecule COC(=O)CN(CCCl)P1(=O)OCCCN1CCCl (stereo unspecified) and give its measured growth inhibition.
-4.8

Consider the molecule C=CC1CN2CCC1CC2C(O)c1ccnc2ccccc12 (stereo unspecified) and give its measured growth inhibition.
4.1

Consider the molecule O=C1N=NC(Cl)c2ccccc21 (stereo unspecified) and give its measured growth inhibition.
-10.8

Consider the molecule N#CCC(=O)[O][Sn]([c]1ccccc1)([c]1ccccc1)[c]1ccccc1 and give its measured growth inhibition.
98.7

* * *

Each entry below lists one item and its recorded growth inhibition value.
Experiment: NCI Yeast Anticancer Drug Screen. Data for the rad50 strain (AID 155);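 note: 0% = growth of vehicle-only cultures of the same strain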
Conditions: S. cerevisiae rad50 strain growth inhibition; at 50.0 µM; stronger effect = higher value
This is part of a sample that, as a whole, favours compounds with a hit. Of some 79,000 tested, about 15% had one in any assay.
Reply numerically in %, unit not repeated.

Below are worked cases with known answers.
CCN(CC)CC(O)c1ccc(Br)cc1 (centres undefined)    0.85
CCC(=O)c1ccc(OC)c(OC)c1    7
C=CCOC(=O)C(Br)CC (centres undefined)    7.65

Lab note: next molecule to report on.
Consider the molecule COc1ccc(CCN)cc1OC and give its measured growth inhibition.
37.5

* * *

Test: NCI Yeast Anticancer Drug Screen. Data for the mlh1 rad18 strain (AID 175)
Details: S. cerevisiae mlh1 rad18 strain growth inhibition; at 50.0 µM
Protocol: Growth inhibition of yeast strains with defined genetic alterations is measured as a screen for potential anti-cancer activity. Selected strains with alterations in DNA damage repair or cell cycle control were exposed to compounds and growth inhibition was measured relative to vehicle treated controls. The strain used in this assay is mlh1 rad18
About 79,000 compounds went through this panel and 15% of them were active in at least one assay; those are over-represented in the sample as a whole. Activity calls are given as the source filed them. No stated cut-off is given here; in the data, active means growth inhibition above about 70%; inactive means the rest.
Entry note: the call must match one of true (1) for active, false (0) for inactive

Here's what some known entries look like.
CNCCc1ccccc1    false (0)
CCOP(=O)(OCC)/C(C#N)=C/c1cccs1    false (0)
C=CCCCCCCCCC(=O)Nc1ccc(Cl)cc1C(=O)c1ccccc1    false (0)
CCOP(=O)(O)SP(=O)(O)OCC.[Zn+2]    false (0)

What call does the record list for CCOC(=O)C1C2(C(C)=O)C=Nc3c(C#N)cnn3C12C(=O)OCC (centres undefined) ?
false (0)

What call does the record list for CCC1c2cc(O)c(OC)cc2CCN1C (centres undefined) ?
false (0)

What call does the record list for Cc1ccc2c(c1)N(CCCl)c1c(ccc3ccccc13)S2 ?
false (0)

What call does the record list for O=[C-]C(F)(F)F.[C-]#[O+].[C-]#[O+].[C-]#[O+].[Mo].[c-]1[c-][c-][cH-][c-]1 ?
false (0)

* * *

Assay: NCI Yeast Anticancer Drug Screen. Data for the mec2-1 strain (AID 157)
Conditions: S. cerevisiae mec2-1 strain, at 50.0 µM, stronger effect = higher value
About 79,000 compounds went through this panel and 15% of them were active in at least one assay; those are over-represented in the sample as a whole.
Each entry gets rule not met if its growth inhibition stays under 20%, and rule met if its growth inhibition is 20% or above.

OCCN=Cc1c[nH]c2ccccc12    rule not met

Next up:
Has CC(C)=NNC1=NC(C)(C)P(=O)(N2CCCC2C(=O)O)S1 (stereo not given) a recorded growth inhibition greater than or equal to 20%?
rule not met
